biological target: Protein arginine N-methyltransferase 7 (Homo sapiens) (UniProt Q9NVM4); test: Inhibition of PRMT7 (unknown origin) using biotin-labeled histone substrate assessed as residual activity at 50 uM in presence of [3H-Me]SAM by scintillation proximity assay relative to control
Sequence (Q9NVM4 whole entry): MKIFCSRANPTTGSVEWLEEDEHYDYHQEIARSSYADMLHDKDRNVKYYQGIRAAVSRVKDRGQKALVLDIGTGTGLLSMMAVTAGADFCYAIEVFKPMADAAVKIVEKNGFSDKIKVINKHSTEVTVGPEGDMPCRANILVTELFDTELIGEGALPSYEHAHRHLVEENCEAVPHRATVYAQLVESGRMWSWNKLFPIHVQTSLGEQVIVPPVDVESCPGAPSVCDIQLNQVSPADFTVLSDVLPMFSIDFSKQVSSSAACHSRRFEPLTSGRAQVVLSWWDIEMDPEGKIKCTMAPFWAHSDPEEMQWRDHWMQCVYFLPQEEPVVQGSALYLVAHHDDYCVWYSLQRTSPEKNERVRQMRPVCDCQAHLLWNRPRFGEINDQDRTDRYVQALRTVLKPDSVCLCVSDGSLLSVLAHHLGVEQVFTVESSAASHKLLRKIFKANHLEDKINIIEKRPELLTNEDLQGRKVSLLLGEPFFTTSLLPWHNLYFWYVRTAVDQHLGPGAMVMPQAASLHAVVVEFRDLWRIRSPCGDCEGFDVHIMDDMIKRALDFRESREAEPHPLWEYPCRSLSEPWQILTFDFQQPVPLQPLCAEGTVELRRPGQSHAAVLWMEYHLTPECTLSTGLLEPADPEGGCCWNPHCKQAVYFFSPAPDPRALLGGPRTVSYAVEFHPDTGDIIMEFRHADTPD
Each record here notes measured Activity.
Write the answer as a number in %, unit excluded.

Consider the reported Activity for these compounds:
O=C(c1cccc(Br)c1)N1CCCC2(CCNCC2)C1 : 101
CN1CCCC2(CCCN(C(=O)c3cccc(Br)c3)C2)C1 (centres undefined) : 92
O=C(c1cccc(Br)c1)N1CC[C@@H]2[C@@H](CC3CCCCN32)C1 (some centres undefined) : 99
O=C(c1cccc(Br)c1)N1CCC2(CCNCC2)CC1 : 103
CN1CC[C@H]2CN(C(=O)c3cccc(Br)c3)C[C@H]21 : 107
C[N+]1(C)CCCCC12CCN(C(=O)c1cccc(Br)c1)CC2 : 94
CN1CCC2(CC1)CCN(C(=O)c1cccc(Br)c1)CC2 : 107
CN1CCCC12CCCN(C(=O)c1cccc(Br)c1)C2 (centres undefined) : 98

## Task Param item = O=C(c1cccc(Br)c1)N1CCCC2(CCCCN2)C1 (centres undefined) ; retrieve measured Activity.
## Result 89

## Task Param item = O=C(c1cccc(Br)c1)N1C[C@@H]2CCN[C@@H]2C1 ; retrieve measured Activity.
## Result 109

## Task Param item = CN1CCC2(CCCN(C(=O)c3cccc(Br)c3)C2)C1 (centres undefined) ; retrieve measured Activity.
## Result 99

## Task Param item = O=C(c1cccc(Br)c1)N1CCC[C@@H]2CNC[C@@H]21 ; retrieve measured Activity.
## Result 104

## Task Param item = O=C(c1cccc(Br)c1)N1CC[C@H]2NCC[C@H]2C1 ; retrieve measured Activity.
## Result 106

## Task Param item = O=C(c1cccc(Br)c1)N1C[C@@H]2CC3CCCCN3[C@@H]2C1 (some centres undefined) ; retrieve measured Activity.
## Result 107

## Task Param item = CN1CCC2(CCCN2C(=O)c2cccc(Br)c2)CC1 ; retrieve measured Activity.
## Result 107

## Task Param item = CN1CCCCC12CCN(C(=O)c1cccc(Br)c1)CC2 ; retrieve measured Activity.
## Result 101

## Task Param item = O=C(c1cccc(Br)c1)N1C[C@@H]2CC3CCCN3[C@@H]2C1 (some centres undefined) ; retrieve measured Activity.
## Result 105

## Task Param item = CN1CCC[C@@H]2CN(C(=O)c3cccc(Br)c3)C[C@@H]21 ; retrieve measured Activity.
## Result 107

## Task Param item = CN1C[C@H]2CCCN(C(=O)c3cccc(Br)c3)[C@H]2C1 ; retrieve measured Activity.
## Result 96

## Task Param item = CN1CCCCC12CCCN(C(=O)c1cccc(Br)c1)C2 (centres undefined) ; retrieve measured Activity.
## Result 104
